# System: M. kansasii 6 509/96 clinical isolate
# Experimental Details: In vitro antimycobacterial MIC, dilution-micromethod in Šula semisynthetic medium
# Assay type: cell-based
# Study Conditions: Mycobacterium kansasii, 336 h; 14 d cultivation; read-out: MIC, MK 6 509/96
Can you tell me MIC for the items I'm about to list?

# annotated cases, reported MIC shown
- COC(=O)Nc1ccc(C(O)CN2CCN(c3ccccc3F)CC2)cc1.Cl (centres unmarked): 500 µM
- CCCCOC(=O)Nc1cccc(C(O)CN2CCN(c3ccccc3F)CC2)c1.Cl (centres unmarked): 32 µM
- CC[C@@H](CO)NCCN[C@@H](CC)CO [EMB, ethambutol, reference compound]: 2 µM
- CCOC(=O)Nc1ccc(C(O)CN2CCN(c3ccccc3F)CC2)cc1.Cl (centres unmarked): > 125 µM

--- query ---
// MIC lookup, key: NNC(=O)c1ccncc1 [INH, isonicotinic acid hydrazide, reference compound] 8 µM

====

# Experimental Details: UV/Vis spectra of methanolic solutions (log ε)
# Format: physicochemical
# Study Conditions: methanolic solution c = 3.0 × 10^−5 M; λ1 = 208–210 nm
# Source text: Electronic properties of the inspected compounds 8a–h (Table 3) were characterized by logarithms of molar absorption coefficients (log ε) of their methanolic solutions (c = 3.0 × 10^−5 M) investigated in the UV/Vis region of the spectrum. The UV/Vis spectra of methanolic solutions of the analyzed compounds 8a–h (c = 3.0 × 10^−5 M) were estimated on the 8452A Diode Array spectrophotometer HP-8452A (Hewlett Packard, Palo Alto, CA, USA). […]
Test Readout: log ε1
Numbers only.

Dear colleague, could you please provide log ε1 for the compounds listed below?
1. CCCCOC(=O)Nc1ccc(C(O)CN2CCN(c3ccccc3F)CC2)cc1.Cl (centres unmarked)
2. COC(=O)Nc1ccc(C(O)CN2CCN(c3ccccc3F)CC2)cc1.Cl (centres unmarked)
3. CCOC(=O)Nc1cccc(C(O)CN2CCN(c3ccccc3F)CC2)c1.Cl (centres unmarked)

1. 4.34
2. 4.61
3. 4.31

====

# Experimental Details: Isocratic RP-HPLC lipophilicity (k, log k, extrapolated log kw, slope S), MeOH/water mobile phases
# Type: physicochemical
# Study Conditions: mobile phase MeOH/water 60:40 (v/v)
Can you tell me log k (RP-HPLC) for the items I'm about to list?
Answers are plain numbers.

* CCCCOC(=O)Nc1cccc(C(O)CN2CCN(c3ccccc3F)CC2)c1.Cl (stereo not shown) | 0.829
* COC(=O)Nc1cccc(C(O)CN2CCN(c3ccccc3F)CC2)c1.Cl (stereo not shown) | 0.612
* CCOC(=O)Nc1cccc(C(O)CN2CCN(c3ccccc3F)CC2)c1.Cl (stereo not shown) | 0.695

--- query ---
// log k (RP-HPLC) lookup, key: COC(=O)Nc1ccc(C(O)CN2CCN(c3ccccc3F)CC2)cc1.Cl (stereo not shown) 0.491

====

# Experimental Details: UV/Vis spectra of methanolic solutions (log ε)
# Type: physicochemical
# Study Conditions: methanolic solution c = 3.0 × 10^−5 M; charge-transfer maximum λ2(Ch-T) = 238–240 nm
Test Readout: log ε2(Ch-T)
Numbers only.

# annotated cases, reported log ε2(Ch-T) shown
- CCCOC(=O)Nc1ccc(C(O)CN2CCN(c3ccccc3F)CC2)cc1.Cl (centres unmarked) [8g]: 4.54
- CCOC(=O)Nc1cccc(C(O)CN2CCN(c3ccccc3F)CC2)c1.Cl (centres unmarked) [8b]: 4.33
- CCOC(=O)Nc1ccc(C(O)CN2CCN(c3ccccc3F)CC2)cc1.Cl (centres unmarked) [8f]: 4.60
- CCCOC(=O)Nc1cccc(C(O)CN2CCN(c3ccccc3F)CC2)c1.Cl (centres unmarked) [8c]: 4.37

--- query ---
// log ε2(Ch-T) lookup, key: COC(=O)Nc1ccc(C(O)CN2CCN(c3ccccc3F)CC2)cc1.Cl (centres unmarked) [8e] 4.67

====

# Experimental Details: UV/Vis spectra of methanolic solutions (log ε)
# Type: physicochemical
# Study Conditions: methanolic solution c = 3.0 × 10^−5 M; λ1 = 208–210 nm
Test Readout: log ε1

• CCCCOC(=O)Nc1cccc(C(O)CN2CCN(c3ccccc3F)CC2)c1.Cl (centres unmarked) = 4.31

Dear colleague, could you please provide log ε1 for the molecules listed below?
1. COC(=O)Nc1cccc(C(O)CN2CCN(c3ccccc3F)CC2)c1.Cl (centres unmarked)
2. CCOC(=O)Nc1ccc(C(O)CN2CCN(c3ccccc3F)CC2)cc1.Cl (centres unmarked)
3. CCCOC(=O)Nc1cccc(C(O)CN2CCN(c3ccccc3F)CC2)c1.Cl (centres unmarked)
4. CCCOC(=O)Nc1ccc(C(O)CN2CCN(c3ccccc3F)CC2)cc1.Cl (centres unmarked)

1: 4.30; 2: 4.59; 3: 4.30; 4: 4.47
